Listed next: entries and their corresponding growth.
# Tested on: MALME-3M melanoma
# Test summary: NCI-60 one-dose screen, 48 h (100 = growth as untreated, 0 = no growth, -100 = all killed)
# Test conditions: 10 µM unless noted
This is part of a sample that, as a whole, favours compounds with a hit. Of some 83,000 tested, about 20% had one in any assay.
Report the figure in % without appending any unit label.

Recorded growth, per entry:
Compound	Assay metric	Data value
O=C(Nc1cccnc1Nc1ccc(F)cc1)c1cn(Cc2cccc(Oc3ccccc3)c2)nn1	growth	60.9
O=C(CCc1nnc(Cn2cnc3nc[nH]c3c2=O)o1)c1nc2ncccc2[nH]1	growth	97.5
COc1ccc2cc(C(=O)c3coc4ccc(O)cc34)ccc2c1	growth	92.1
Cc1ccc2c3c(c(=O)[nH]c2c1)C1(C(C#N)=C(N)O3)c2cc(Br)ccc2-c2ccc(Br)cc21	growth	-47.9
O=C1c2cc(Cl)ccc2S(=O)(=O)c2c(NCCCNCCO)nc3ccccc3c21	growth	-81.4
CCCCCCC1(C)NCCO1 (stereo unspecified)	growth	105

Exercise: # get_value(readout='growth', item= C#Cc1cccc(Nc2ncnc3ccc(-c4cncc(NS(C)(=O)=O)c4)cc23)c1 )
Key: 33.2

Exercise: # get_value(readout='growth', item= CCOC(=O)c1c(C)nc2c(c1N)CC(=O)N2Cc1cc(F)cc(Cl)c1 )
Key: 108

Exercise: # get_value(readout='growth', item= O=C(OCc1ccc2c(Cl)cc(Cl)c(O)c2n1)n1cncn1 )
Key: 33

Exercise: # get_value(readout='growth', item= Brc1ccc(-n2cc(-c3nn[nH]n3)c(-c3cccs3)n2)cc1 )
Key: 93.7

Exercise: # get_value(readout='growth', item= C=C(C)[C@@H]1CC[C@]2(C(=O)OC)CC[C@]3(C)[C@H](CC[C@@H]4[C@@]5(C)C/C(=C/NC(N)=S)C(=O)C(C)(C)[C@@H]5CC[C@]43C)[C@@H]12 )
Key: 119

Exercise: # get_value(readout='growth', item= COc1ccc2[nH]cc(C(c3cc(F)cc(F)c3)c3c[nH]c4ccc(OC)cc34)c2c1 )
Key: 206

Exercise: # get_value(readout='growth', item= C#CCOc1cccc(Nc2ncnc3ccc(NC(=O)CCl)cc23)c1 )
Key: -76.3

Exercise: # get_value(readout='growth', item= O=C(Nc1cc(Cl)ccc1O)c1ccc(Nc2ccnc(C(F)(F)F)c2)cc1 )
Key: 60.5

* * *

# System: NCI-H23 lung
# Test summary: NCI-60 one-dose screen, 48 h
# Test conditions: 10 µM unless noted
# Experimental: Growth inhibition of the NCI-H23 human Non-Small Cell Lung tumor cell line is measured as a screen for anti-cancer activity. Cells are grown in 96 well plates and exposed to the test compound for 48 hours. Compounds are tested at a single concentration, which is 10^-5 M for most compounds. The reported endpoint is percent growth (GI% or GIPRCNT), where numbers from 0 - 100% represent growth inhibition, and numbers from -100% - 0 represent cell death. […]
Compounds without any hit were thinned out: in the full panel of roughly 83,000, 20% have a hit. Active and inactive are the calls of the source. Rule for the calls: active = growth percent below 10; inactive = the rest.
Respond using exactly one of the listed classes: active, inactive

Example cases with answers are listed next.
Compound	Measured on	Group label
COC(=O)/C=C1/SC(=Nc2ccc(C)cc2)N(CCc2c[nH]c3ccc(O)cc23)C1=O	NCI-H23 lung	inactive
N#CC1=C(c2ccc(Cl)cc2)Nc2c(c(-c3ccc(Cl)cc3)nn2-c2ccccc2)C12C(=O)Nc1ccc(Cl)cc12 (stereo not drawn)	NCI-H23 lung	inactive
OB(O)c1cccc(-c2nc3ccc4[nH]ncc4c3c3c2CCCC3)c1	NCI-H23 lung	inactive
Cc1ccccc1NC(=O)c1sc2nc(C)c(C(=O)/C=C/c3ccccc3)cc2c1N	NCI-H23 lung	inactive
O=C(CSc1nc2sc3c(c2c(=O)n1-c1ccccc1)CCCCC3)N/N=C/c1ccc(F)cc1	NCI-H23 lung	inactive
Cn1cc(-c2csc(-c3c[nH]c4ccc(Br)cc34)n2)c2cnccc21	NCI-H23 lung	active
COc1ccc2c(O)c(/C=C3\N=Nc4ccccc43)oc2c1C[C@@H]1CCNC[C@H]1F	NCI-H23 lung	inactive
COc1cc(CNC(=O)/C=C/C=C/c2ccc3c(c2)OCO3)ccc1OCc1cn(-c2ccc(C)c(C)c2)nn1	NCI-H23 lung	inactive
N#CC1=C(N)Oc2c(sc3c(F)cccc23)C1c1ccc(F)cc1 (stereo not drawn)	NCI-H23 lung	inactive
Cc1ccc(-c2nn(-c3ccccc3)cc2C=C2C(=O)ON=C2C(C)C)cc1	NCI-H23 lung	inactive

Exercise: Could you kindly confirm the outcome this assay logged for COc1ccc2nc3ccc(OC)cc3c(SCCCN)c2c1 ?
Key: inactive

Exercise: Could you kindly confirm the outcome this assay logged for CC[C@@H](C(=O)[C@@H](C)[C@@H](O)[C@H](C)[C@@H]1O[C@@H]([C@@H](CC)C(=O)NCCc2ccc(F)cc2)CC[C@@H]1C)C1O[C@]2(C=CC(=O)[C@]3(CC[C@@](C)([C@H]4CC[C@](O)(CC)[C@H](C)O4)O3)O2)[C@H](C)C[C@@H]1C (stereo partly drawn) ?
Key: inactive

Exercise: Could you kindly confirm the outcome this assay logged for COc1ccc(C(=O)Nc2ncc(Cc3cccc(Cl)c3)s2)cc1OC ?
Key: inactive

* * *

# Tested on: NCI-H23 lung
# Test summary: NCI-60 one-dose screen, 48 h (100 = growth as untreated, 0 = no growth, -100 = all killed)
# Test conditions: 10 µM unless noted
Compounds without any hit were thinned out: in the full panel of roughly 83,000, 20% have a hit. The source made the active and inactive calls. How the source made its calls: active means growth percent below 10; inactive means the rest.
Assay metric: growth

Compound	growth
CO[C@H]1/C=C(/C)CCC[C@H](C)[C@H](O)[C@@H](C)C(=O)C(C)(C)[C@@H](O)CC(=O)O[C@@H]1/C(C)=C/c1csc(C)n1	34.7% (inactive)

Exercise: # get_value(readout='growth', item= COc1ccc(C(=O)Nc2ncc(Cc3ccc(F)cc3)s2)cc1 )
Key: 30.7% (inactive)

Exercise: # get_value(readout='growth', item= CC1(C)c2[nH]c3ccccc3c2C[C@]2(C)[C@H]3CC=C4[C@@H]5C[C@@](C)(C(N)=O)CC[C@]5(C)CC[C@@]4(C)[C@]3(C)CC[C@@H]12 )
Key: 51.2% (inactive)

Exercise: # get_value(readout='growth', item= CC(C)(C)n1cc(-c2ccnc(NCCNS(=O)(=O)c3cccc(F)c3)c2)c(-c2ccccc2)n1 )
Key: 79.1% (inactive)

Exercise: # get_value(readout='growth', item= NC(=O)c1c(NC(=O)c2ccccc2)sc2c1CCC(=O)C2 )
Key: 5.93% (active)

Exercise: # get_value(readout='growth', item= CC(=O)Cc1nsc(NC(=O)c2cc(-c3cc(Cl)cc(Cl)c3)oc2C)n1 )
Key: 101% (inactive)

Exercise: # get_value(readout='growth', item= COc1ccc2c(c1)[n+]([O-])c(C(=O)/C=C/C=C(\Cl)c1cc(OC)c(OC)c(OC)c1)c(C)[n+]2[O-] )
Key: 79.7% (inactive)

Exercise: # get_value(readout='growth', item= CCCCN1C(=O)/C(=c2\sc3n(c2=O)C2C(NN=3)N(CC)C(=O)N2CC)c2ccccc21 (stereo not drawn) )
Key: 25% (inactive)

* * *

# Test system: SNB-75 CNS
# Test summary: NCI-60 one-dose screen, 48 h (100 = growth as untreated, 0 = no growth, -100 = all killed)
# Test conditions: 10 µM unless noted
About 83,000 compounds went through this panel and 20% of them were active in at least one assay; those are over-represented in the sample as a whole.
Note to self: class labels come from recorded growth, ranges listed here: group A: < 70%; group B: ≥ 70% and < 80%; group C: ≥ 80%

Example cases with answers are listed next.
Compound	Group label
CCn1c(=S)sc2c(Nc3ccc(F)cc3)nc(-c3cccnc3)nc21	group A
NC(=O)CCC(C(=O)O)N1C(=O)c2ccc(O)cc2C1=O (centres undefined)	group C
O=[N+]([O-])c1ccc(-c2nc(N3CCOCC3)c3c4c(sc3n2)CCCC4)cc1	group B
COc1ccc(-c2nnc(-c3ccc4c(c3)nc(-c3ccncc3)n4C3CCCCC3)o2)cc1	group B
O=C(c1ccc(-c2ccccc2)cc1)c1ccc([N+](=O)[O-])cc1	group C
CCN(CC)CCNC(=O)c1cn2ncnc(Oc3ccc(NC(=O)Nc4ccc(Cl)c(C(F)(F)F)c4)c(F)c3)c2c1C	group A

Moving on to the next compound.
Exercise: Which bin, given its growth, does CN1CCN(c2ccc(NC(=O)c3nc4ccc5[nH]ncc5c4c4c3CCCC4)cc2C(F)(F)F)CC1 occupy?
Key: group C

* * *

# Test system: T-47D breast
# Test summary: NCI-60 one-dose screen, 48 h (100 = growth as untreated, 0 = no growth, -100 = all killed)
# Test conditions: 10 µM unless noted
Compounds without any hit were thinned out: in the full panel of roughly 83,000, 20% have a hit.
Rule for this label: true (1) means growth is less than 50%; false (0) means growth is at least 50%.

CN1C(=O)/C(=C/c2ccc(C(=O)Nc3ncc(Cc4ccc(Cl)cc4)s3)cc2)SC1=S true (1)
C1=C(N2CCCC2)CCC1 false (0)
Brc1ccc2[nH]cc(-c3nonc3-c3c[nH]c4ccccc34)c2c1 true (1)

Moving on to the next molecule.
Exercise: Determine if COc1cc(-n2cc(-c3cc(O)c(C/C=C(\C)CCC=C(C)C)c(O)c3)nn2)cc2c1O[C@]1(C)CC[C@@H](O)C(C)(C)[C@H]1C2 shows growth strictly lower than 50%.
Key: true (1)
